- System: UO-31 renal
- Run description: NCI tumour cell line growth inhibition, 48 h
Measure name: GI50

Recorded results for 2 compounds are shown here.
INSERT INTO assay_data (compound, tested_system, result) VALUES
  ('CC1CN(S(=O)(=O)c2oc(-c3ccc(Cl)cc3)nc2C#N)CC(C)O1 (stereo not drawn)', 'UO-31 renal', '1.56 µM'),
  ('c1cc(-c2nnc(SSc3ncnc4nc[nH]c34)o2)ccn1', 'UO-31 renal', '0.742 µM');

Proceed to the following item.
Enquiry: Need GI50, item `NC(=O)[C@@H](CC1CC1)[C@@H](CCC(F)(F)F)C(=O)N[C@H]1N=C(c2ccccc2)c2cccc(F)c2NC1=O`
Return: 75.3 µM
